Reported values of pIC50 for individual entries
molecular target: m-calpain (Rattus norvegicus); construct: m-calpain was purified from rat brain; from tissue; host or cells: rat brain; test: Thiol protease inhibitory activity, m-calpain purified from rat brain; format: biochemical; details: Table 4
Sequence (Q07009 20-700 limits assumed): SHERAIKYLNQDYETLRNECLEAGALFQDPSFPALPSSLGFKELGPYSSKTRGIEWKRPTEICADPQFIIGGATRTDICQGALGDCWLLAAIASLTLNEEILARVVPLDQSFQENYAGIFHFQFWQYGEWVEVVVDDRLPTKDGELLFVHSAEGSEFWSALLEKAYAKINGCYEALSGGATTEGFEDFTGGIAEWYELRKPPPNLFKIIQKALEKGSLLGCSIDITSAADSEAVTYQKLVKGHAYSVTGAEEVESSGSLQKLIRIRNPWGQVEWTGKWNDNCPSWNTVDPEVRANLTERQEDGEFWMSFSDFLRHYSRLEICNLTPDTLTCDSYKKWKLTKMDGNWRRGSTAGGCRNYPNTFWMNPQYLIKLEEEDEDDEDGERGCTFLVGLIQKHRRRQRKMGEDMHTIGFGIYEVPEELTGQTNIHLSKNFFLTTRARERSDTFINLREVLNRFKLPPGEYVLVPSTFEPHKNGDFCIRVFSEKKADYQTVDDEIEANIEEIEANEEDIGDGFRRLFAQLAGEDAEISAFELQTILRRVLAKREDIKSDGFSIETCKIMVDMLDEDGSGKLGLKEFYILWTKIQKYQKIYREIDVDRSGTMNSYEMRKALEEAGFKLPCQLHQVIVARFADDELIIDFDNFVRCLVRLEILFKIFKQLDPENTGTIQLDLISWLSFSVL
Sequence (Q64537 whole entry partner): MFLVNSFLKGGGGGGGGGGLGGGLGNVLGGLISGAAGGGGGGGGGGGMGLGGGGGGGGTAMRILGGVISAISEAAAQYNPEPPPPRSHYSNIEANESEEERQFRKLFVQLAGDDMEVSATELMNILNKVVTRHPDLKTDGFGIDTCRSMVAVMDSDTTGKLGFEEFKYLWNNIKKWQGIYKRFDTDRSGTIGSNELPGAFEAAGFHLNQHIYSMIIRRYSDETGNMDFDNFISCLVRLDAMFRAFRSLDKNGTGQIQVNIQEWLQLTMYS
pIC50: −log10 of the molar value.
MEASUREMENT_TYPE: pIC50

- CCCC[C@H](NC(=O)[C@H](CC(C)C)NC(=O)c1cc(F)c(F)c(F)c1)C(=O)CSCc1ccco1: 5.85
- CCCC[C@H](NC(=O)[C@H](CC(C)C)NC(=O)c1cc2cccc(F)c2o1)C(=O)CSCc1ccco1: 5.11
- CC(C)C[C@H](NC(=O)OCc1ccccc1)C(=O)N[C@@H](Cc1ccccc1)C(=O)CSCc1ccc(Cl)s1: 5.02
- CCCC[C@H](NC(=O)[C@H](CC(C)C)NC(=O)COc1cccc(OC)c1)C(=O)CSCc1ccco1: 5.22
- CCCC[C@H](NC(=O)[C@H](CC(C)C)NC(=O)c1cc(OC)cc(OC)c1)C(=O)CSCc1ccco1: 5.38
- CCCC[C@H](NC(=O)[C@H](CC(C)C)NC(=O)c1c(F)c(F)c(F)c(F)c1F)C(=O)CSCc1ccco1: 5.68
